Hey, just so you know, these numbers are from patent US12281081B2.

Tested on: Alopecurus myosuroides (ALOMY)
Test description: Pre-emergence herbicidal glasshouse test
Assay type: in vivo
Conditions used: 250 g/Ha, evaluated after 13 days
Measured property: percentage damage caused to the plant, ALOMY

Here's what some known entries look like.
INSERT INTO assay_data (compound, recorded_measurement) VALUES
  ('CC#Cc1cc(C)c(C2C(=O)CC3(CCN(S(=O)(=O)N(C)C)CC3)CC2=O)c(C)c1', '5 (5=80-100%)'),
  ('CC#Cc1cc(C)c(C2C(=O)CC3(CCN(S(=N)(=O)CC)CC3)CC2=O)c(C)c1 (stereo not shown)', '5 (5=80-100%)'),
  ('CC#Cc1cc(C)c(C2C(=O)CC3(CCN(S(=O)(=O)N4CCS(=O)(=O)CC4)CC3)CC2=O)c(C)c1', '5 (5=80-100%)'),
  ('CC#Cc1cc(C)c(C2C(=O)CC3(CCN(S(=O)(=O)NC(C)=O)CC3)CC2=O)c(C)c1', '5 (5=80-100%)'),
  ('CC#Cc1cc(C)c(C2=C(OC(=O)OC)CC3(CCN(S(=O)(=O)N(C)C(=O)OC)CC3)CC2=O)c(C)c1', '5 (5=80-100%)');

Q: Entry CC#Cc1cc(C)c(C2=C(OC(=O)OC)CC3(CCN(S(=O)(=O)NC)CC3)CC2=O)c(C)c1 [Compound P2] : reported percentage damage caused to the plant, ALOMY = ?
A: 5 (5=80-100%)

Q: Reported percentage damage caused to the plant, ALOMY for CC#Cc1cc(C)c(C2=C(OC(=O)OC)CC3(CCN(S(=N)(=O)CC)CC3)CC2=O)c(C)c1 (stereo not shown) [Compound P1] : what is it?
A: 5 (5=80-100%)

----------
Test system: Avena fatua (AVEFA)
Test description: Post-emergence herbicidal glasshouse test
Format: in vivo
Conditions used: 250 g/Ha, evaluated after 13 days
Measured property: percentage damage caused to the plant, AVEFA

Some solved entries appear below for comparison.
INSERT INTO measurements (molecule, recorded_measurement) VALUES
  ('CC#Cc1cc(C)c(C2C(=O)CC3(CCN(S(=O)(=O)NC)CC3)CC2=O)c(C)c1', '5 (5=80-100%)'),
  ('CC#Cc1cc(C)c(C2C(=O)CC3(CCN(S(=N)(=O)c4ccccn4)CC3)CC2=O)c(C)c1 (centres unmarked)', '5 (5=80-100%)'),
  ('CC#Cc1cc(C)c(C2C(=O)CC3(CCN(S(C)(=N)=O)CC3)CC2=O)c(C)c1 (centres unmarked)', '5 (5=80-100%)'),
  ('CC#Cc1cc(C)c(C2=C(OC(=O)OC)CC3(CCN(S(C)(=N)=O)CC3)CC2=O)c(C)c1 (centres unmarked)', '5 (5=80-100%)'),
  ('CC#Cc1cc(C)c(C2C(=O)CC3(CCN(S(=O)(=O)N4CCOCC4)CC3)CC2=O)c(C)c1', '5 (5=80-100%)'),
  ('CC#Cc1cc(C)c(C2=C(OC(=O)OC)CC3(CCN(S(=N)(=O)CC)CC3)CC2=O)c(C)c1 (centres unmarked) [Compound P1]', '5 (5=80-100%)'),
  ('CC#Cc1cc(C)c(C2C(=O)CC3(CCN(S(=O)(=O)NCC)CC3)CC2=O)c(C)c1', '5 (5=80-100%)'),
  ('CC#Cc1cc(C)c(C2C(=O)CC3(CCN(S(=O)(=O)N4CCS(=O)(=O)CC4)CC3)CC2=O)c(C)c1', '5 (5=80-100%)');

Q: # input molecule: CC#Cc1cc(C)c(C2=C(OC(=O)OC)CC3(CCN(S(=O)(=O)N(C)C(=O)OC)CC3)CC2=O)c(C)c1 ; wanted: its percentage damage caused to the plant, AVEFA
A: 5 (5=80-100%)

Q: Can you share its percentage damage caused to the plant, AVEFA? I mean this molecule: CC#Cc1cc(C)c(C2C(=O)CC3(CCN(S(=O)(=O)NC(C)=O)CC3)CC2=O)c(C)c1
A: 5 (5=80-100%)

Q: Quick check: percentage damage caused to the plant, AVEFA of CC#Cc1cc(C)c(C2C(=O)CC3(CCN(S(=O)(=O)N(C)CC#N)CC3)CC2=O)c(C)c1 ?
A: 5 (5=80-100%)

Q: Please look up its percentage damage caused to the plant, AVEFA: CC#Cc1cc(C)c(C2C(=O)CC3(CCN(S(=O)(=O)N(C)C)CC3)CC2=O)c(C)c1
A: 5 (5=80-100%)

Q: Field request: percentage damage caused to the plant, AVEFA | item: CC#Cc1cc(C)c(C2C(=O)CC3(CCN(S(=N)(=O)CC)CC3)CC2=O)c(C)c1 (centres unmarked)
A: 5 (5=80-100%)

Q: For CC#Cc1cc(C)c(C2=C(OC(=O)OC)CC3(CCN(S(=O)(=O)NC)CC3)CC2=O)c(C)c1 [Compound P2] , what is its reported percentage damage caused to the plant, AVEFA?
A: 5 (5=80-100%)

----------
Measured percentage damage caused to the plant, LOLPE values are reported for all entries that follow.
System: Lolium perenne (LOLPE)
Test description: Post-emergence herbicidal glasshouse test
Assay type: in vivo
Conditions used: 250 g/Ha, evaluated after 13 days

INSERT INTO results (compound, recorded_measurement) VALUES
  ('CC#Cc1cc(C)c(C2C(=O)CC3(CCN(S(=O)(=O)N(C)C)CC3)CC2=O)c(C)c1 [Compound A4]', '5 (5=80-100%)');

// next entry
Q: May I ask what percentage damage caused to the plant, LOLPE has been recorded for CC#Cc1cc(C)c(C2C(=O)CC3(CCN(S(=N)(=O)c4ccccn4)CC3)CC2=O)c(C)c1 (stereo not shown) [Compound A5] ?
A: 5 (5=80-100%)

----------
Test system: Alopecurus myosuroides (ALOMY)
Test description: Pre-emergence herbicidal glasshouse test
Format: in vivo
Conditions used: 250 g/Ha, evaluated after 13 days
Measured property: percentage damage caused to the plant, ALOMY

Some solved cases for reference:
INSERT INTO measurements (molecule, recorded_measurement) VALUES
  ('CC#Cc1cc(C)c(C2C(=O)CC3(CCN(S(=O)(=O)NCC)CC3)CC2=O)c(C)c1', '3 (3=40-59%)'),
  ('CC#Cc1cc(C)c(C2C(=O)CC3(CCN(S(C)(=N)=O)CC3)CC2=O)c(C)c1 (stereo not drawn)', '5 (5=80-100%)'),
  ('CC#Cc1cc(C)c(C2=C(OC(=O)OC)CC3(CCN(S(C)(=N)=O)CC3)CC2=O)c(C)c1 (stereo not drawn)', '5 (5=80-100%)'),
  ('CC#Cc1cc(C)c(C2C(=O)CC3(CCN(S(=O)(=O)N(C)CC#N)CC3)CC2=O)c(C)c1', '1 (1=0-19%)'),
  ('CC#Cc1cc(C)c(C2C(=O)CC3(CCN(S(=O)(=O)NC)CC3)CC2=O)c(C)c1', '5 (5=80-100%)');

Then this molecule:
Q: Reported percentage damage caused to the plant, ALOMY, molecule CC#Cc1cc(C)c(C2C(=O)CC3(CCN(S(=O)(=O)N4CCOCC4)CC3)CC2=O)c(C)c1 : ____
A: 2 (2=20-39%)

----------
Tested on: Lolium perenne (LOLPE)
Test description: Post-emergence herbicidal glasshouse test
Type: in vivo
Conditions used: 250 g/Ha, evaluated after 13 days
Measured percentage damage caused to the plant, LOLPE values are reported for all entries that follow.

Example compounds with recorded percentage damage caused to the plant, LOLPE:
INSERT INTO results (compound, recorded_measurement) VALUES
  ('CC#Cc1cc(C)c(C2=C(OC(=O)OC)CC3(CCN(S(=N)(=O)CC)CC3)CC2=O)c(C)c1 (centres unmarked) [Compound P1]', '5 (5=80-100%)'),
  ('CC#Cc1cc(C)c(C2C(=O)CC3(CCN(S(=O)(=O)N(C)CC#N)CC3)CC2=O)c(C)c1 [Compound A11]', '5 (5=80-100%)'),
  ('CC#Cc1cc(C)c(C2C(=O)CC3(CCN(S(=O)(=O)N4CCS(=O)(=O)CC4)CC3)CC2=O)c(C)c1 [Compound A12]', '4 (4=60-79%)'),
  ('CC#Cc1cc(C)c(C2C(=O)CC3(CCN(S(=O)(=O)NC(C)=O)CC3)CC2=O)c(C)c1 [Compound A13]', '5 (5=80-100%)');

Q: Entry CC#Cc1cc(C)c(C2C(=O)CC3(CCN(S(=O)(=O)NCC)CC3)CC2=O)c(C)c1 [Compound A6] : reported percentage damage caused to the plant, LOLPE = ?
A: 5 (5=80-100%)
